# Target under test: STING R293Q-variant (Homo sapiens, UniProt Q86WV6, H232R/R293Q)
# Sequence (Q86WV6 whole entry H232R/R293Q): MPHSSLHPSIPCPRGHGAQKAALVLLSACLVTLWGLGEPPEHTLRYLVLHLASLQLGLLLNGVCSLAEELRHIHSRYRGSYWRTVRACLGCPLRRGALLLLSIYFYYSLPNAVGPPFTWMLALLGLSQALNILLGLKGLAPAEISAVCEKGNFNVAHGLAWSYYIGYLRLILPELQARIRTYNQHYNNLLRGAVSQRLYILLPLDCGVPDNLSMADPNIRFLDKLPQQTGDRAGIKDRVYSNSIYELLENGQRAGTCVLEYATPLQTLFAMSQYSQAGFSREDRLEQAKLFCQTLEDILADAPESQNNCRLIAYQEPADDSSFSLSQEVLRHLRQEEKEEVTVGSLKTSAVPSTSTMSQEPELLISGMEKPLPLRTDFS
# Experimental details: IRF-inducible SEAP reporter assay in THP1-Blue ISG cells, STING R293Q-variant
# Applied conditions: 24 hours incubation
pEC50: −log10 of the molar value.
Value kind: pEC50

1. Cc1cccc2c(-c3cccc4nn(C)cc34)nn(-c3ccc(N4CCC5(CC4)CNC5=O)nc3)c12 ... 5.68
2. CC(=O)N1CCN(c2ccc(-n3nc(-c4cccc5nn(C)cc45)c4cccc(C)c43)cn2)CC1 ... 6.15
3. Cn1cc2c(-c3nn(-c4ccc(N5CCC(C(=O)O)CC5)nc4)c4c(C(F)(F)F)cccc34)cccc2n1 ... 5.68
4. Cc1cc2c(-c3nn(-c4ccc(N5CC6C(C5)C6C(=O)O)nc4)c4c(C)cccc34)cccn2n1 (stereo not shown) ... 6.10
5. Cc1cccc2c(-c3cccc4nn(C)cc34)nn(-c3ccc(N4CCC5(CCC(=O)N5)CC4)nc3)c12 ... 6.40
6. CC(=O)NC1C2CN(c3ccc(-n4nc(-c5cccc6nn(C)cc56)c5cccc(C)c54)cn3)CC21 (stereo not shown) ... 5.77
7. Cc1cc2c(-c3nn(-c4ccc(N5CCC(C(=O)O)CC5)nc4)c4c(C)cccc34)cccc2cn1 ... 5.66

* * *

# Target under test: STING H232R-variant (Homo sapiens, UniProt Q86WV6, H232R)
# Sequence (Q86WV6 whole entry H232R): as the sequence (Q86WV6 whole entry H232R/R293Q) above, with Q293R counted along it
# Experimental details: IRF-inducible SEAP reporter assay in THP1-Blue ISG cells, STING H232R-variant
# Applied conditions: STING H232R-variant (WT), 24 hours incubation
Class (by EC50) -- Low (below 0.2 µM), Mid (0.2 µM to below 0.6 µM), High (0.6 µM or more)

1. Cc1cccc2c(-c3cccc4nn(C)cc34)nn(-c3ccc(N4CCN(C=O)CC4)nc3)c12 [compound 51] ... Low
2. Cc1cccc2c(-c3cccc4nn(C)cc34)nn(-c3ccc(N4CCS(=O)(=O)CC4)nc3)c12 [Example #5] ... Mid
3. Cc1cc2c(-c3nn(-c4ccc(N5CC6C(C5)C6C(=O)O)nc4)c4c(C)cccc34)cccn2n1 (stereo not drawn) [compound 68] ... High
4. Cc1cccc2c(-c3cccc4nn(C)cc34)nn(-c3ccc(NCc4cncnc4)nc3)c12 [compound 24] ... High
5. Cc1cc2c(-c3nn(-c4ccc(N5CCC(C(=O)O)CC5)nc4)c4c(C)cccc34)cccc2cn1 [Example #61] ... High
6. Cc1cccc2c(-c3cccc4nn(C)cc34)nn(-c3ccc(N4CCC5(CC4)CNC5=O)nc3)c12 [compound 10] ... Mid
7. Cc1cccc2c(-c3cccc4nn(C)cc34)nn(-c3ccc(N4CCC5(CCC(=O)N5)CC4)nc3)c12 [Example #2] ... Low
8. Cc1c(CO)ccc2c(-c3cccc4nn(C)cc34)nn(-c3ccc(N4CCC(S(C)(=O)=O)CC4)nc3)c12 [compound 75] ... Low
9. Cn1cc2c(-c3nn(-c4ccc(N5CCC(C(=O)O)CC5)nc4)c4c(C(F)(F)F)cccc34)cccc2n1 [Example #67] ... High
10. Cc1cccc2c(-c3cccc4nn(C)cc34)nn(-c3ccc(N4CCC5(CC4)C(=O)N(C)C(=O)N5C)nc3)c12 [compound 9] ... Low
11. Cc1cccc2c(-c3cccc4nn(C)cc34)nn(-c3ccc(N4CCC(NS(C)(=O)=O)CC4)nc3)c12 [compound 56] ... Mid

* * *

# Experimental details: in vitro
# Applied conditions: human, Caco-2, pH 7.4
Value kind: Papp A→B at 10 μM (×10⁻⁶ cm/s)

1. Cc1cccc2c(-c3cccc4nn(C)cc34)nn(-c3ccc(N4CCC(C(=O)O)CC4)nc3)c12 ... 15
2. Cc1cccc2c(-c3cccc4nn(C)cc34)nn(-c3ccc(N4CC5C(C4)C5C(=O)O)nc3)c12 (stereo not drawn) ... 11
3. Cn1cc2c(-c3nn(-c4ccc(N5CCC(C(=O)O)CC5)nc4)c4c(C(F)(F)F)cccc34)cccc2n1 ... 16

* * *

# Experimental details: Solubility measurements (HTS) at pH 6.8
# Format: physicochemical
# Applied conditions: kinetic from dmso stock; aqueous McIlvaine buffer pH 6.8, 24 h at room temperature, from 10 mM DMSO stock; read-out: Soblubility
Catalogue of solubility kinetic at 24 h readings, one per entry.
Value kind: solubility kinetic at 24 h (µg/mL)

1. Cn1cc2c(-c3nn(-c4ccc(N5CCC(C(=O)O)CC5)nc4)c4c(C(F)(F)F)cccc34)cccc2n1 [Example #67] ... 82
2. Cc1c(-c2cnn(C)c2)ccc2c(-c3cccc4nn(C)cc34)nn(-c3ccc(N4CC5C(C4)C5C(=O)O)nc3)c12 (stereo not shown) [Example #28] ... 87
3. Cc1cccc2c(-c3cccc4cnc(N(C)C)cc34)nn(-c3ccc(N4CCC(C(=O)O)CC4)nc3)c12 [Example #63] ... 75
4. Cc1cccc2c(-c3cccc4cnccc34)nn(-c3ccc(N4CCC(C(=O)O)CC4)nc3)c12 [compound 62] ... 49
5. Cc1cc(C)c2c(c1)c(-c1cccc3nn(C)cc13)nn2-c1ccc(N2CC3C(C2)C3C(=O)O)nc1 (stereo not shown) [compound 69] ... 70
6. Cc1c(CO)ccc2c(-c3cccc4nn(C)cc34)nn(-c3ccc(N4CC5C(C4)C5C(=O)O)nc3)c12 (stereo not shown) [compound 71] ... 67
7. Cc1cccc2c(-c3cccc4nn(C)cc34)nn(-c3ccc(N4CC5C(C4)C5C(=O)O)nc3)c12 (stereo not shown) [Example #59] ... 66

* * *

This section presents molecules with their documented pEC50 values.
# Target under test: STING HAQ-variant (Homo sapiens, UniProt Q86WV6, G230A/H232R/R293Q/R71H)
# Construct: parental THP1-Blue™ ISG cell lines (which express endogenously HAQ); host or cells: THP1-Blue ISG (parental, endogenous HAQ) or STING-KO clone re-transduced with HAQ (MSCV-ires-GFP-Blasti)
# Sequence (Q86WV6 whole entry R71H/G230A/H232R/R293Q): as the sequence (Q86WV6 whole entry H232R/R293Q) above, with R71H, G230A counted along it
# Experimental details: IRF-inducible SEAP reporter assay in THP1-Blue ISG cells, STING HAQ-variant
# Type: cell-based
# Applied conditions: STING HAQ-variant (parental or re-introduced), 24 hours incubation
pEC50: −log10 of the molar value.
Value kind: pEC50

1. CCOC(=O)C1CCN(c2ccc(-n3nc(-c4cccc5nn(C)cc45)c4cccc(C)c43)cn2)CC1 ... 5.27
2. Cc1cccc2c(-c3cccc4cnccc34)nn(-c3ccc(N4CCC(C(=O)O)CC4)nc3)c12 ... 5.51
3. Cc1cccc2c(-c3cccc4nn(C)cc34)nn(-c3ccc(N4CC5C(C4)C5C(N)=O)nc3)c12 (centres unmarked) ... 5.74
4. COC(=O)C1C2CN(c3ccc(-n4nc(-c5cccc6nn(C)cc56)c5cccc(C)c54)cn3)CC21 (centres unmarked) ... 6.15
5. CC(=O)N1CCN(c2ccc(-n3nc(-c4cccc5nn(C)cc45)c4cccc(C)c43)cn2)CC1 ... 6.00
6. Cc1cccc2c(-c3cccc4nn(C)cc34)nn(-c3ccc(N4CCN(C(N)=O)CC4)nc3)c12 ... 6.10
7. Cc1cccc2c(-c3cccc4nn(C)cc34)nn(-c3ccc(N4CCCN(C=O)CC4)nc3)c12 ... 5.72
8. Cc1cc(C)c2c(c1)c(-c1cccc3nn(C)cc13)nn2-c1ccc(N2CCC(C(=O)O)CC2)nc1 ... 4.79

* * *

# Target under test: STING AQ-variant (Homo sapiens, UniProt Q86WV6, G230A/H232R/R293Q)
# Sequence (Q86WV6 whole entry G230A/H232R/R293Q): as the sequence (Q86WV6 whole entry H232R/R293Q) above, with G230A counted along it
# Experimental details: IRF-inducible SEAP reporter assay in THP1-Blue ISG cells, STING AQ-variant
# Applied conditions: 24 hours incubation
log10 EC50 values, listed per item
Value kind: log10 EC50 (log10 of the value in nM)

1. Cn1cc2c(-c3nn(-c4ccc(N5CCC(C(=O)O)CC5)nc4)c4c(C(F)(F)F)cccc34)cccc2n1 ... 3.36
2. Cc1cccc2c(-c3cccc4nn(C)cc34)nn(-c3ccc(N4CCC5(CC4)CNC5=O)nc3)c12 ... 3.34
3. Cn1cc2c(-c3nn(-c4ccc(N5CC6C(C5)C6C(=O)O)nc4)c4c(Cl)cccc34)cccc2n1 (stereo not drawn) ... 2.85
4. Cc1cc(C)c2c(c1)c(-c1cccc3nn(C)cc13)nn2-c1ccc(N2CC3C(C2)C3C(=O)O)nc1 (stereo not drawn) ... 2.85
5. Cc1cccc2c(-c3cccc4nn(C)cc34)nn(-c3ccc(N4CC5(CN(C=O)C5)C4)nc3)c12 ... 3.72
6. CCc1cccc2c(-c3cccc4nn(C)cc34)nn(-c3ccc(N4CC5C(C4)C5C(=O)O)nc3)c12 (stereo not drawn) ... 2.00

* * *

# Target under test: STING AQ-variant (Homo sapiens, UniProt Q86WV6, G230A/H232R/R293Q)
# Experimental details: IRF-inducible SEAP reporter assay in THP1-Blue ISG cells, STING AQ-variant
# Applied conditions: 24 hours incubation
pEC50: −log10 of the molar value.
Form field: pEC50 (one value per entry).
Value kind: pEC50

1) Cc1cccc2c(-c3cccc4nn(C)cc34)nn(-c3ccc(N4CCC(S(C)(=O)=O)CC4)nc3)c12 ... 6.22
2) Cc1cccc2c(-c3cccc4nn(C)cc34)nn(-c3ccc(N4CC5C(C4)C5C(N)=O)nc3)c12 (stereo not shown) ... 6.10
3) Cc1cc2c(-c3nn(-c4ccc(N5CC6C(C5)C6C(=O)O)nc4)c4c(C)cccc34)cccn2n1 (stereo not shown) ... 6.10
4) COc1cccc2c(-c3cccc4nn(C)cc34)nn(-c3ccc(N4CC5C(C4)C5C(=O)O)nc3)c12 (stereo not shown) ... 6.15
